target: human SLC6A19 and TMEM27 (Homo sapiens); construct: expressed in transfected cells; assay: Radiolabelled (3H) leucine uptake in CHO cells with doxycycline-inducible expression of human SLC6A19 and TMEM27 (Example B-1); assay type: cell-based; conditions: CHO cells with doxycycline-inducible expression of human SLC6A19 and TMEM27, read-out: SLC6A19_Radioligand Uptake Assay IC50
Provide the reported IC50 of each item.
Numbers only, in nM.

# annotated cases, reported IC50 shown
molecule=CC1(C(=O)NCc2cc3cc(Cl)c(OCc4ccon4)c(F)c3[nH]2)CC1 observed_value=172
molecule="Cc1cc(COc2cc3[nH]c(CNC(=O)CC4CCO4)cc3cc2Cl)on1 (centres unmarked)" observed_value=1190
molecule=CC1(C(=O)NCc2cc3cc(Cl)c(SCc4ccon4)cc3[nH]2)CC1 observed_value=154
molecule=O=C(NCc1cc2cc(F)c(OCc3ccccn3)cc2[nH]1)C1CC1 observed_value=203
molecule=Cc1cc(CCc2cc3[nH]c(CNC(=O)C4(C)CC4)cc3cc2Cl)no1 observed_value=154

For each of the molecules below, note its IC50.
1. Cc1cc(COc2cc3[nH]c(CNC(=O)[C@@H]4CC(F)(F)CN4)cc3cc2Cl)on1
2. Cc1cc(COc2cc3[nH]c(CNC(=O)C4(C#N)CC4)cc3cc2Cl)on1
3. Cc1cc(COc2cc3[nH]c(CNC(=O)C(F)(F)F)cc3cc2Cl)on1

output:
[2990, 199, 123]

###

biological target: human SLC6A19 and TMEM27 (Homo sapiens); construct: expressed in transfected cells; experiment: Radiolabelled (3H) leucine uptake in CHO cells with doxycycline-inducible expression of human SLC6A19 and TMEM27 (Example B-1); type: cell-based; details: CHO cells with doxycycline-inducible expression of human SLC6A19 and TMEM27, read-out: SLC6A19_Radioligand Uptake Assay IC50
hey, just use satisfied if measured IC50 is less than 400 nM, otherwise not satisfied

// below: answered compounds
structure_smiles=O=C(NCc1cc2cc(Cl)c(OCc3cocn3)cc2[nH]1)C1CC1 class_name=satisfied
structure_smiles=Cc1cc(COc2cc3[nH]c(CNC(=O)C4CC4)cc3cc2Cl)no1 class_name=satisfied
structure_smiles=CC1CN(C(=O)NCc2cc3cc(F)c(OCc4ccon4)cc3[nH]2)C1 class_name=satisfied
structure_smiles=O=C(CC(F)(F)F)NCc1cc2cc(Cl)c(OCc3cscn3)cc2[nH]1 class_name=satisfied

input: hey, is IC50 for Cc1ccc(COc2cc3[nH]c(CNC(=O)C4(C)CC4)cc3cc2Cl)nc1 lower than 400 nM or not?
output: not satisfied

###

target: human SLC6A19 and TMEM27 (Homo sapiens, UniProt Q695T7); construct: expressed in transfected cells; assay: Radiolabelled (3H) leucine uptake in CHO cells with doxycycline-inducible expression of human SLC6A19 and TMEM27 (Example B-1); type: cell-based; settings: CHO cells with doxycycline-inducible expression of human SLC6A19 and TMEM27, read-out: SLC6A19_Radioligand Uptake Assay IC50
Sequence (Q695T7 whole entry): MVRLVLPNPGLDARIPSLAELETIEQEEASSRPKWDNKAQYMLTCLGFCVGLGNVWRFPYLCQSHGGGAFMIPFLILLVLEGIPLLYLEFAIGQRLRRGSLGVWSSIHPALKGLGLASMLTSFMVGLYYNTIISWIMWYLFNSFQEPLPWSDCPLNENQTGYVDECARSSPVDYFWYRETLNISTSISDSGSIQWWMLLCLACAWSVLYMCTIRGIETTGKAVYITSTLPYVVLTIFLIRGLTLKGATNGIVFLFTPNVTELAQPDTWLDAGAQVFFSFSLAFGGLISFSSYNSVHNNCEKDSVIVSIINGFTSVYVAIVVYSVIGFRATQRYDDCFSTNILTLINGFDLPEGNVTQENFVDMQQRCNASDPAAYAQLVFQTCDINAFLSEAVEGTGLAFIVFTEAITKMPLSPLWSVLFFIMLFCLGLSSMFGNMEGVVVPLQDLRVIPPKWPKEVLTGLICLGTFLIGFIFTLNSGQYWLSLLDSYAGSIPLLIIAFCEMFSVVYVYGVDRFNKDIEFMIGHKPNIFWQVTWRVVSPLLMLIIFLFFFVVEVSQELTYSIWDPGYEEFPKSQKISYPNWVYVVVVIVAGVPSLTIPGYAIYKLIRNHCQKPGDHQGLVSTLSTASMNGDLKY
Sequence (Q9HBJ8 15-222 partner): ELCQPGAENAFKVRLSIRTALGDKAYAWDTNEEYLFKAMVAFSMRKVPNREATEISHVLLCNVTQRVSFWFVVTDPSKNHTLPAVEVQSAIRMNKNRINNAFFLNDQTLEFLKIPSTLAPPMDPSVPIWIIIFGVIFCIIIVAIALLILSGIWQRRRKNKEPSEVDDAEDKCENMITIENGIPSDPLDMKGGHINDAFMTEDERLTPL
hey, just use yes if measured IC50 is less than 400 nM, otherwise no

// below: answered compounds
compound="Cc1cc(COc2cc3[nH]c(CNC(=O)[C@H]4CCN4)cc3cc2Cl)on1 [Compound 616]" class_name=no
compound="CC1(C(=O)NCc2cc3ccc(OCc4ccc(F)nc4)cc3[nH]2)CC1 [Compound 34]" class_name=no
compound="O=C(NCc1cc2cc(Cl)c(OCc3cocn3)cc2[nH]1)N1CCCC1 [Compound 113]" class_name=yes
compound="CC1(C(=O)NCc2cc3cc(Cl)c(OCc4ccc(F)cn4)cc3[nH]2)CC1 [Compound 28]" class_name=yes
compound="Cc1cnc(COc2cc3[nH]c(CNC(=O)N4CCCC4)cc3cc2Cl)o1 [Compound 120]" class_name=yes
compound="Cc1nc(COc2cc3[nH]c(CNC(=O)C4CC4)cc3cc2F)co1 [Compound 549]" class_name=no

input: hey, is IC50 for O=C(NCc1cc2c(F)cc(OCc3ccon3)cc2[nH]1)N1CCC1 [Compound 423] lower than 400 nM or not?
output: yes

input: hey, is IC50 for CC(=O)NCc1cc2c(F)cc(OCc3cc(C)no3)cc2[nH]1 [Compound 527] lower than 400 nM or not?
output: no

input: hey, is IC50 for CC(=O)NCc1cc2cc(Cl)c(OCC3COC3)cc2[nH]1 [Compound 355] lower than 400 nM or not?
output: no
